Hello, the source for this data is ChEMBL document CHEMBL5518181, in case you need it.

Recorded IC50 at 40 h, one value per entry.
assay: Cytotoxicity against human HepG2 cells incubated for 40 hrs by celltiter-glo luminescent cell viability assay; type: toxicity, cell-based
State just the number; it will be interpreted in µg/mL.

Before answering, review these 2 worked examples.
CC[C@H](C)[C@@H](NC(=O)[C@H](CC1CCCCC1)NC(=O)[C@H](CCC(=O)O)NC(=O)[C@H](Cc1ccccc1)NC(=O)[C@@H](CCN)NC(=O)[C@H](CCN)NC(=O)[C@H](CO)NC(=O)[C@@H](Cc1c[nH]c2ccccc12)NC(=O)[C@@H](CO)NC(=O)CNC(=O)[C@@H](CCN)NC(=O)[C@H](N)C(C)C)C(=O)N[C@@H](C)C(=O)O; 46
CC[C@H](C)[C@@H](NC(=O)[C@@H](NC(=O)[C@H](CCC(=O)O)NC(=O)[C@H](Cc1ccccc1)NC(=O)[C@@H](CCN)NC(=O)[C@H](CCN)NC(=O)[C@H](CO)NC(=O)[C@@H](Cc1c[nH]c2ccccc12)NC(=O)[C@@H](CO)NC(=O)CNC(=O)[C@@H](CCN)NC(=O)[C@H](N)C(C)C)C(C)(C)C)C(=O)N[C@@H](C)C(N)=O; 93

# evaluate next
In plain terms, CC[C@H](C)[C@@H](NC(=O)[C@@H](NC(=O)[C@H](CCC(=O)O)NC(=O)[C@H](Cc1ccccc1)NC(=O)[C@@H](CCN)NC(=O)[C@H](CCN)NC(=O)[C@H](CO)NC(=O)[C@@H](Cc1c[nH]c2ccccc12)NC(=O)[C@@H](CO)NC(=O)[C@H](CC(=O)O)NC(=O)[C@@H](CCN)NC(=O)[C@H](N)C(C)C)C(C)C)C(=O)N[C@@H](C)C(=O)O has a documented IC50 at 40 h of 13

====

test: Hemolytic activity in human red blood cells at 400 ug/ml incubated for 45 mins by spectrophotometric analysis relative to control; type: toxicity, cell-based, Erythrocyte; conditions: red blood cells (erythrocytes), at 400 µg/mL, read-out: Activity
Recorded hemolysis at 0.75 h, 400 ug/ml, one value per entry.
State just the number; it will be interpreted in %.

CC[C@H](C)[C@@H](NC(=O)[C@@H](NC(=O)[C@H](CCC(=O)O)NC(=O)[C@H](Cc1ccccc1)NC(=O)[C@@H](C)NC(=O)[C@H](CCN)NC(=O)[C@H](CO)NC(=O)[C@@H](Cc1c[nH]c2ccccc12)NC(=O)[C@@H](CO)NC(=O)CNC(=O)[C@@H](CCN)NC(=O)[C@H](N)C(C)C)C(C)C)C(=O)N[C@@H](C)C(=O)O; 0
CC[C@H](C)[C@@H](NC(=O)[C@@H](NC(=O)[C@H](CCC(=O)O)NC(=O)[C@H](Cc1ccccc1)NC(=O)[C@@H](CCN)NC(=O)[C@H](C)NC(=O)[C@H](CO)NC(=O)[C@@H](Cc1c[nH]c2ccccc12)NC(=O)[C@@H](CO)NC(=O)CNC(=O)[C@@H](CCN)NC(=O)[C@H](NC(=O)[C@H](C)N)C(C)C)C(C)C)C(=O)N[C@@H](C)C(=O)O; 7.9
CC[C@H](C)[C@@H](NC(=O)[C@@H](NC(=O)[C@H](CCC(=O)O)NC(=O)[C@H](Cc1ccccc1)NC(=O)[C@@H](CCN)NC(=O)[C@H](C)NC(=O)[C@H](CO)NC(=O)[C@@H](Cc1c[nH]c2ccccc12)NC(=O)[C@@H](CO)NC(=O)CNC(=O)[C@@H](CCN)NC(=O)[C@H](N)C(C)C)C(C)C)C(=O)N[C@@H](C)C(=O)O; 5.9

In plain terms, CC[C@H](C)[C@@H](NC(=O)[C@@H](NC(=O)[C@H](CCC(=O)O)NC(=O)[C@H](Cc1ccccc1)NC(=O)[C@@H](CCN)NC(=O)[C@H](CCN)NC(=O)[C@H](CC(=O)O)NC(=O)[C@@H](Cc1c[nH]c2ccccc12)NC(=O)[C@@H](CO)NC(=O)CNC(=O)[C@@H](CCN)NC(=O)[C@H](N)C(C)C)C(C)C)C(=O)N[C@@H](C)C(=O)O has a documented hemolysis at 0.75 h, 400 ug/ml of 0

In plain terms, CC[C@H](C)[C@@H](NC(=O)[C@@H](NC(=O)[C@H](CCC(=O)O)NC(=O)[C@H](Cc1ccccc1)NC(=O)[C@@H](CCN)NC(=O)[C@H](CCN)NC(=O)[C@H](CO)NC(=O)[C@@H](Cc1c[nH]c2ccccc12)NC(=O)[C@@H](CO)NC(=O)CNC(=O)[C@@H](CCN)NC(=O)[C@H](NC(=O)[C@@H](N)CC(=O)O)C(C)C)C(C)C)C(=O)N[C@@H](C)C(=O)O has a documented hemolysis at 0.75 h, 400 ug/ml of 0

In plain terms, CC[C@H](N)C(=O)N[C@@H](C(=O)N[C@H](CCN)C(=O)NCC(=O)N[C@H](CO)C(=O)N[C@H](Cc1c[nH]c2ccccc12)C(=O)N[C@@H](CO)C(=O)N[C@@H](CCN)C(=O)N[C@H](CCN)C(=O)N[C@@H](Cc1ccccc1)C(=O)N[C@@H](CCC(=O)O)C(=O)N[C@H](C(=O)N[C@@H](C(=O)N[C@@H](C)C(=O)O)[C@@H](C)CC)C(C)C)C(C)C has a documented hemolysis at 0.75 h, 400 ug/ml of 8.8
